Test summary: Oral bioavailability in rat
Format: ADME, organism-based
Assay conditions: in vivo
Experimental readout: bioavailability (%)
Response body: numeric value in %, unit text excluded.

Ask | # query: bioavailability of entry CC(C)(C)c1cc(C(C)(C)C)c(NC(=O)c2c[nH]c3ccccc3c2=O)cc1O
Reply | 55

* * *

Target entity: Cystic fibrosis transmembrane conductance regulator (Homo sapiens, UniProt P13569)
Sequence (P13569 whole entry, looked up, change not shown): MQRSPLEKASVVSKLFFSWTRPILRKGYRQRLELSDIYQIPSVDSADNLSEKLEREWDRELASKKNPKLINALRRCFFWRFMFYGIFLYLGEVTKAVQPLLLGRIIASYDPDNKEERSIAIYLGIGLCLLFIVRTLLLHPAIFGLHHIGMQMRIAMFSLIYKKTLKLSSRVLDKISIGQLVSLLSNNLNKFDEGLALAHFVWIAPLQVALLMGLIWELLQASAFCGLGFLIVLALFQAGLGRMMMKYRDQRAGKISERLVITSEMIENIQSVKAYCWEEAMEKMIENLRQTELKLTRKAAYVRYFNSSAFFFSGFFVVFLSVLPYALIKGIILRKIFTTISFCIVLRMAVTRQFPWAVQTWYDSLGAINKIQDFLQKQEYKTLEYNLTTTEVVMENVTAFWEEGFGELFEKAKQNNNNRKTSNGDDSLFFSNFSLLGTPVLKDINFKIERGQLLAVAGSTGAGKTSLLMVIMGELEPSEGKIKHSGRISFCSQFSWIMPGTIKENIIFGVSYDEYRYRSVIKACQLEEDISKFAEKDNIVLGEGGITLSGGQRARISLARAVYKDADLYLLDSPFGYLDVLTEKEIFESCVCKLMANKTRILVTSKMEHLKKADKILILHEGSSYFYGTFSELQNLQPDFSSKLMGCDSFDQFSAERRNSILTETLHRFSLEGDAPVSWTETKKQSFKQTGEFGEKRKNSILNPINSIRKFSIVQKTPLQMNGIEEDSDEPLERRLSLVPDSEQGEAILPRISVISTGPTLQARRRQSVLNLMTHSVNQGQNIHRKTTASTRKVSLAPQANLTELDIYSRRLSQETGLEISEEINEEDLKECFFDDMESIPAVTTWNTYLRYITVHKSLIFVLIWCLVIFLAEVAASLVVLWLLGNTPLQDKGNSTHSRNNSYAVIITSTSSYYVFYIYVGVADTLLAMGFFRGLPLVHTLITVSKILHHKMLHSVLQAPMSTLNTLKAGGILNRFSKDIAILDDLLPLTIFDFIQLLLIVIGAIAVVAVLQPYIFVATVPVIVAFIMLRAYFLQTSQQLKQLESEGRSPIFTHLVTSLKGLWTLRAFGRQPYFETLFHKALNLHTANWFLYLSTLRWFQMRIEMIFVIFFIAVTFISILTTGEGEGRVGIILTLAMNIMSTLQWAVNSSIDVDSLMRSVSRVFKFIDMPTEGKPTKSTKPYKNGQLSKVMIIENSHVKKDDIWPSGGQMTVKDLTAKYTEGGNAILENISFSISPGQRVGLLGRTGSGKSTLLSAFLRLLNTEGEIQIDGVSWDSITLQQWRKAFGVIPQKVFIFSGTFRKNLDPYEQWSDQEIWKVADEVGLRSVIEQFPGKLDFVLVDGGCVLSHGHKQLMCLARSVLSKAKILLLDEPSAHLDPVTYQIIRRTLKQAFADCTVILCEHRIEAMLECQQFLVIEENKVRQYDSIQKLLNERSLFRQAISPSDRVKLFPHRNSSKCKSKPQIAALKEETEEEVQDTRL
Test summary: Corrector activity at CFTR mutant (unknown origin) by phenotypic screening assay
Below, each entry is listed with its recorded pEC50.
Just the number, please; pEC50 means minus log10 of the concentration in mol/L.

Ask | Quick check: pEC50 of O=C(Nc1ccc2cc[nH]c2c1)c1c[nH]c2ccccc2c1=O ?
Reply | 7.00

Ask | Tell me the measured pEC50 of O=C(c1c[nH]c2ccccc2c1=O)N(Cc1ccccc1)Cc1ccccc1 , please.
Reply | 5.68

Ask | Need pEC50, item CC(C)(C)c1cc(C(C)(C)C)c(NC(=O)c2c[nH]c3ccccc3c2=O)cc1O
Reply | 8.52

* * *

Test summary: Half life in rat
Format: ADME, organism-based
Assay conditions: in vivo
Experimental readout: half-life (h)
Reply with just the number (in h).

Ask | Fill blank: measured half-life of the molecule CC(C)(C)c1cc(C(C)(C)C)c(NC(=O)c2c[nH]c3ccccc3c2=O)cc1O [IVACAFTOR] is ____.
Reply | 9.5

These entries and their values trace back to ChEMBL document CHEMBL3352116.
